Data origin: PubChem BioAssay

Assay: growth suppression of yeast trafficking mutant, preliminary HTS, modulators of trafficking downstream of Golgi apparatus project, 1536-format plate, OD 615 nm (AID 637); note: test concentration not given here
Conditions: yeast transport mutant growth, absorbance 615 nm, 18 h; stronger effect = higher value
Recorded inhibition for the following compounds

[
  {
    "Compound": "COc1ccc2c(c1OC)C(=O)O[C@@H]2[C@H]1c2c(cc3c(c2OC)OCO3)CCN1C",
    "inhibition, %": -3.5
  },
  {
    "Compound": "CCc1cn([C@H]2C[C@H](O)[C@@H](CO)O2)c(=O)[nH]c1=O",
    "inhibition, %": 7.5
  },
  {
    "Compound": "CCN(CC)c1nc(N(CC)CC)[nH]c(=O)n1",
    "inhibition, %": 6.72
  },
  {
    "Compound": "CCn1c(Cc2ccccc2)nnc1SCC(=O)Nc1cc(C)on1",
    "inhibition, %": -2.95
  },
  {
    "Compound": "COc1ccc(N2C(=O)C3CCCN3C2c2ccc(F)cc2)cc1Cl (stereo unspecified)",
    "inhibition, %": -6.94
  },
  {
    "Compound": "Cn1c(=O)n(Cc2ccccc2)c(=O)c2c1nc(NCC1CCCO1)n2Cc1ccccc1 (stereo unspecified)",
    "inhibition, %": -0.18
  },
  {
    "Compound": "OCCn1c(CSc2nnc(-c3ccco3)n2-c2ccccc2)nc2ccc(Cl)cc21",
    "inhibition, %": -3.97
  },
  {
    "Compound": "CCN(C(=O)c1ccnc(C(C)(C)C)c1)c1ccccc1",
    "inhibition, %": 2
  },
  {
    "Compound": "Cc1cc(NS(=O)(=O)c2ccc(NC(=O)Nc3ccc4c(c3)OCO4)cc2)no1",
    "inhibition, %": 0.55
  },
  {
    "Compound": "Cc1cccc(-n2ncc3c(NCc4cccs4)ncnc32)c1",
    "inhibition, %": 0.36
  },
  {
    "Compound": "CC1Cc2ccccc2N1S(=O)(=O)c1ccc2c(c1)n(C)c(=O)c(=O)n2C (stereo unspecified)",
    "inhibition, %": 0
  }
]
